Assay: Selectivity index, ratio of CC50 to EC50
Format: functional
measure: Selectivity

Would you please look over these solved cases?
[[record]]
smiles_representation = "CCOC(=O)c1cc(C)cn1S(=O)(=O)c1cc(Cl)ccc1N"
observed_value = "> 2220"

[[record]]
smiles_representation = "CCOC(=O)c1cccn1S(=O)(=O)c1cc(Cl)ccc1N"
observed_value = "> 1430"

[[record]]
smiles_representation = "CCOC(=O)c1cc(COc2ccccc2)cn1S(=O)(=O)c1cc(Cl)ccc1N"
observed_value = "> 49"

[[record]]
smiles_representation = "CCOC(=O)c1cc(COC)cn1S(=O)(=O)c1cc(Cl)ccc1N"
observed_value = "> 500"


Continue with the compound presented below.
Request: Which Selectivity is listed for `CCOC(=O)c1cc(CNc2ccccc2)cn1S(=O)(=O)c1cc(Cl)ccc1N` ?
Result: > 55.5
